- System: HEK293T
- method_notes: qHTS assay to identify novel small-molecules to repurpose for Merkel cell carcinoma treatment (AID 1296009); note: nearly all actives have a fitted effect of over 60% in size
- measurement_conditions: MCC and control cell lines, CellTiter-Glo viability, 72 h; series mostly up to 44.8 µM
- Excerpt: MCC is a rare and aggressive neuroendocrine skin cancer with limited treatment options. Approximately 80% of MCCs have the Merkel cell polyomavirus (MCPyV) DNA integrated into the host genome (virus-positive: VP-MCC) and viral oncogenes drive oncogenesis. The remaining MCCs are virus-negative (VN-MCC) and are caused by UV mutagenesis. […] Using cell viability as a readout (CellTiter-Glo assay) we found both overlapping and distinct drugs that can be repurposed for the treatment of VP-MCC and VN-MCC. […]
Inconclusive results are not listed. Activity calls are given as the source filed them. Calls come from the whole dose curve; as a rule, active = well fitted inhibition curve with a large enough effect; inconclusive = small, poorly fitted or top-dose-only effect; inactive = flat fitted curve, though single readings scatter.
measurement_label: outcome

As a guide, the following entries are already answered.
>>> experimental_result("CC1=C2[C@@H]([C@H](C)CC[C@H]2/C=C(\\C)C(=O)O)[C@H](O)C1")
"inactive"
>>> experimental_result("CC(=O)O[C@H]1CC[C@@]2(CI)C(=CC[C@@H]3[C@@H]2CC[C@]2(C)[C@@H]([C@H](C)CCCC(C)C)CC[C@@H]32)C1")
"inactive [at 9.27 µM]"
>>> experimental_result("OCCc1ccc(O[C@@H]2O[C@H](CO)[C@@H](O)[C@H](O)[C@H]2O)c(O)c1")
"inactive"
>>> experimental_result("CCOC(=O)[C@H](CCc1ccccc1)CC1(C(=O)N[C@H]2CCc3ccccc3N(CC(=O)O)C2=O)CCCC1")
"inactive"
>>> experimental_result("C=C1CCC(OC(C)=O)C2(C)CC3(O)OC(=O)C(C)=C3CC12 (stereo not drawn)")
"inactive"

**Q:** I have this molecule here, CC1CCC2C(C)(C)C(O)CCC2(C)C12Cc1c(O)cc3c(c1O2)CN(C(CCC(N)=O)C(=O)O)C3=O (stereo not drawn) , and I need its recorded outcome.
**A:** inactive

**Q:** I have this molecule here, COc1cc(C2Oc3c(OC)cc(/C=C/C(=O)OC[C@H]4O[C@@H](OC(C)(C)C(=O)O)[C@H](O)[C@@H](O)[C@@H]4O)cc3C2CO)ccc1O (stereo partly drawn) , and I need its recorded outcome.
**A:** inactive

**Q:** I have this molecule here, COC1CC(=O)CCC(C)OC(=O)CC1O (stereo not drawn) , and I need its recorded outcome.
**A:** inactive

**Q:** I have this molecule here, `CC/C=C\C[C@H]1C(=O)C=C[C@@H]1CCCCCCCC(=O)O` , and I need its recorded outcome.
**A:** inactive

**Q:** I have this molecule here, CC(=O)O[C@@H]1[C@H](O[C@@H]2OC[C@](O)(CO)[C@H]2O)[C@@H](O[C@@H]2O[C@@H](C)[C@H](O)[C@@H](O)[C@H]2O)[C@H](OC(=O)[C@]23CCC(C)(C)C[C@H]2C2=CCC4[C@@]5(C)C[C@H](O)[C@H](O[C@@H]6O[C@H](C(=O)O)[C@@H](O)[C@H](O)[C@H]6O)[C@@](C)(C(=O)O)C5CC[C@@]4(C)[C@]2(C)CC3)O[C@@H]1C (stereo partly drawn) , and I need its recorded outcome.
**A:** inactive [at 9.27 µM]

**Q:** I have this molecule here, CC1[C@@H](O)[C@@H](O)C2[C@]3(C)C(C[C@H]4OC(=O)[C@H](O)[C@]1(O)[C@@]24C)C(C)(O)C[C@H](O)[C@H]3O (stereo partly drawn) , and I need its recorded outcome.
**A:** inactive

**Q:** I have this molecule here, C[C@@H]1O[C@@H](O[C@H]2[C@H](OC(=O)C34CCC5(C)C(=CCC6C7(C)CC(O)C(O[C@@H]8O[C@H](C(=O)O)[C@@H](O)[C@H](O)[C@H]8O)C(C)(C(=O)O)C7CCC65C)C3CC(C)(C)CC4O)O[C@H](C)[C@@H](O)[C@@H]2O)[C@H](O)[C@@H](O[C@@H]2OC[C@](O)(CO)[C@H]2O[C@@H]2O[C@H](CO)[C@@H](O)[C@H](O)[C@H]2O)[C@H]1O (stereo partly drawn) , and I need its recorded outcome.
**A:** inactive [at 9.27 µM]

**Q:** I have this molecule here, `c1nc(NC2CCCCCC2)c2cc(CNC[C@H]3CCCO3)sc2n1` , and I need its recorded outcome.
**A:** inactive

---

- Test system: Tov112D
- method_notes: Primary qHTS to identify gynecologic anti-cancer compounds using libraries of approved drugs and bioactive compounds (AID 1345084); note: % is set by controls: 0 for no effect and ±100 for the full control effect; nearly all actives have a fitted effect of over 55% in size
- measurement_conditions: Gynecologic cancer cell panel viability, ATPlite luminescence, 48 h; series mostly up to 57.5 µM
Results filed as inconclusive are left out. Active and inactive are the calls of the source. The call rests on the fitted dose curve; in most records, active means well fitted cell-killing curve with a large enough effect; inconclusive means small, poorly fitted or top-dose-only effect, or effect the other way; inactive means flat fitted curve, though single readings scatter.
measurement_label: activity change, negative = cytotoxicity

As a guide, the following entries are already answered.
>>> experimental_result("CCn1cc(C2=NOC(C(=O)Nc3c(C)n(C)n(-c4ccccc4)c3=O)C2)c(C)n1 (stereo not given)")
"inactive"
>>> experimental_result("C=C1CCC2C(C)(C)C(O)CCC2(C)C1CCC(C)CCOC(=O)CCC(=O)O (stereo not given)")
"inactive"
>>> experimental_result("CC(C)(C)NCc1cc(Nc2ccnc3cc(Cl)ccc23)c2c(c1O)CCCC2")
"20.2% [at 0.462 µM] (inactive)"
>>> experimental_result("COc1cc(C2Oc3c(O)cc(CCCO)cc3C2CO)ccc1O[C@H]1O[C@H](C)[C@@H](O)[C@H](O)[C@@H]1O (stereo not given in full)")
"inactive"

**Q:** I have this molecule here, CC(=O)N1c2ccccc2C2(O)CC3C(=O)NC(CC(C)C)C(=O)N3C12 (stereo not given) , and I need its recorded activity change, negative = cytotoxicity.
**A:** inactive

---

- Test system: CRL-7250
- method_notes: Cytotoxic Profiling of Annotated Libraries Using Quantitative High-Throughput Screening (AID 1296008); note: nearly all actives have a fitted effect of over 60% in size
- measurement_conditions: Five cell lines viability, CellTiter-Glo ATP luminescence, 48-72 h
Results filed as inconclusive are left out. Calls of active or inactive are those of the source. Calls come from the whole dose curve; as a rule, active = well fitted inhibition curve with a large enough effect; inconclusive = small, poorly fitted or top-dose-only effect; inactive = flat fitted curve, though single readings scatter.
Tick one outcome: y for active, n for inactive

**Q:** Dear colleague, could you share the recorded outcome for `COc1ccc(/C=C/C(=O)O[C@H]2[C@@H]3C=CO[C@@H](O[C@@H]4O[C@H](CO)[C@@H](O)[C@H](O)[C@H]4O)[C@@H]3[C@@]3(CO)O[C@@H]23)cc1O` when you have a moment?
**A:** n

**Q:** Dear colleague, could you share the recorded outcome for CCN(c1cc(C#CCN2CCOCC2)cc(C(=O)NCc2c(C)cc(C)[nH]c2=O)c1C)C1CCC(N(C)CCOC)CC1 (configuration not stated) when you have a moment?
**A:** n

**Q:** Dear colleague, could you share the recorded outcome for `Cc1onc(-c2ccccc2)c1C(=O)N[C@@H]1C(=O)N2[C@@H]1SC(C)(C)[C@@H]2C(=O)O` when you have a moment?
**A:** n

**Q:** Dear colleague, could you share the recorded outcome for `OC[C@H]1O[C@@H](Oc2ccc(O)c3cccc(O)c23)[C@H](O)[C@@H](O)[C@@H]1O` when you have a moment?
**A:** n

**Q:** Dear colleague, could you share the recorded outcome for `CN(NC(=O)CC(=O)NN(C)C(=S)c1ccccc1)C(=S)c1ccccc1` when you have a moment?
**A:** y

**Q:** Dear colleague, could you share the recorded outcome for `CC1=C2C(=O)C=C(CO)[C@@H]2[C@H]2OC(=O)[C@H](C)[C@@H]2[C@@H](O)C1` when you have a moment?
**A:** n

**Q:** Dear colleague, could you share the recorded outcome for COC1=Cc2c(nc3n(c2=O)C(C)C(=O)NC3(O)C(C)C)OC=C1 (configuration not stated) when you have a moment?
**A:** n

**Q:** Dear colleague, could you share the recorded outcome for C=C1C2(CCC(=O)OC2(C)C)CC(OC(=O)/C(C)=C/C)C2(C)C13OC14C(=O)OC(C)(C(=O)C12C(=O)OC4C)C3OC(C)=O (configuration not stated) when you have a moment?
**A:** n

**Q:** Dear colleague, could you share the recorded outcome for C=C1CCC2[C@@](C)(C=O)CCC[C@]2(C)[C@H]1CC/C(C)=C/CO (some centres not stated) when you have a moment?
**A:** n

**Q:** Dear colleague, could you share the recorded outcome for `Cc1c(-c2ccnn2C)cc(C(=O)NCc2ccc(S(C)(=O)=O)cn2)c(=O)n1-c1cccc(C(F)(F)F)c1` when you have a moment?
**A:** n

**Q:** Dear colleague, could you share the recorded outcome for C[C@@H]1O[C@@H](O[C@H]2[C@H](O[C@H]3CC[C@@]4(C)C(CC[C@]5(C)C4CC=C4C6CC(C)(C)CC[C@]6(C(=O)O[C@@H]6O[C@H](CO[C@@H]7O[C@H](CO)[C@@H](O[C@@H]8O[C@@H](C)[C@H](O)[C@@H](O)[C@H]8O)[C@H](O)[C@H]7O)[C@@H](O)[C@H](O)[C@H]6O)CC[C@]45C)[C@]3(C)CO)OC[C@H](O)[C@@H]2O)[C@H](O)[C@H](O)[C@H]1O (some centres not stated) when you have a moment?
**A:** n

**Q:** Dear colleague, could you share the recorded outcome for CC1=CCC2C(C)(CO)CCCC2(CO)C1CO (configuration not stated) when you have a moment?
**A:** n

Data provenance is PubChem BioAssay (NCATS).
